All values here come from patent US20060030585A1.

Study system: delta opioid receptor (NG108-15 cell membranes) (Mus musculus, UniProt P32300)
Construct: NG108-15 cell membranes were purchased from Applied Cell Sciences (Rockville, Md.); host or cells: NG108-15 cell membranes (purchased)
Sequence (P32300 whole entry): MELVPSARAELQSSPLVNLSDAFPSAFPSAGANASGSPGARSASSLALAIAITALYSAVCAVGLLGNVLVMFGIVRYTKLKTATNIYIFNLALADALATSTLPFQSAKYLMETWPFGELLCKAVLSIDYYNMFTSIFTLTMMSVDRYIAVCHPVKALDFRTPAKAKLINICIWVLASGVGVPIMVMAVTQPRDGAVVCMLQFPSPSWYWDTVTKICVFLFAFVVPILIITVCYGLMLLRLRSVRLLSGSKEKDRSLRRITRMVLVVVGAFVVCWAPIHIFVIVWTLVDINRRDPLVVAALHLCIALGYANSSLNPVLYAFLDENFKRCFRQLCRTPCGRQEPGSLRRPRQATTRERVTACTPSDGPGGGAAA
Experimental details: [35S]GTPγS binding assay in NG108-15 cell membranes (delta opioid)
Type: biochemical
Run parameters: DOR GTPγS EC50, NG108-15 cell membranes, agonist-stimulated [35S]GTPγS binding
pEC50: −log10 of the molar value.
Given measured pEC50, output Fulfilled if it is greater than or equal to 7 and Not fulfilled if not.

Sample answers from the record:
O=C(c1ccc2c(c1)Oc1ccccc1C2=C1CC2CCC(C1)N2)N1CCCC1 | Fulfilled
c1cncc(-c2ccc3c(c2)Oc2ccccc2C3=C2CC3CCC(C2)N3)c1 | Not fulfilled
O=c1[nH]c(-c2ccc3c(c2)Oc2ccccc2C3=C2CC3CCC(C2)N3)ns1 | Not fulfilled

## Input Textbook exercise: given the entry COCCN(C)C(=O)c1ccc2c(c1)Oc1ccccc1C2=C1CC2CCC(C1)N2 , state whether its pEC50 is greater than or equal to 7.
## Output Not fulfilled

## Input Reported pEC50 reaches at least 7 for c1ccc2c(c1)Sc1cc(-c3nnn[nH]3)ccc1C2=C1C[C@H]2CC[C@@H](C1)N2 (single isomer, unassigned) ?
## Output Fulfilled
